Measured koff, listed per entry.
# Experimental Target: canine FcRn (FcRn large subunit with canine beta-2-microglobulin) (canine)
# Experimental Details: SPR pH 6.0, IgG coupled to CM5, FcRn 50-800 nM
Quick note: give the figure in s⁻¹, leave out the unit.

Past entries and their recorded results:
Binder	Number
anti-NGF canine IgGB antibody, Fc variant N434R + Y436H (antibody, part only; not given: Anti-NGF variable domains, not shown: another chain or arm of the molecule) Fc: APEMLGGPSVFIFPPKPKDTLLIARTPEVTCVVVDLDPEDPEVQISWFVDGKQMQTAKTQPREEQFNGTYRVVSVLPIGHQDWLKGKQFTCKVNNKALPSPIERTISKARGQAHQPSVYVLPPSREELSKNTVSLTCLIKDFFPPDIDVEWQSNGQQEPESKYRTTPPQLDEDGSYFLYSKLSVDKSRWQRGDTFICAVMHEALHRHHTQESLSHSPGK	0.0838
anti-NGF canine IgGB antibody, Fc variant A426H + T286Y (antibody, part only; not given: anti-NGF variable domains and light chain, not shown: another chain or arm of the molecule; small tags and cut ends) Fc: APEMLGGPSVFIFPPKPKDTLLIARTPEVTCVVVDLDPEDPEVQISWFVDGKQMQYAKTQPREEQFNGTYRVVSVLPIGHQDWLKGKQFTCKVNNKALPSPIERTISKARGQAHQPSVYVLPPSREELSKNTVSLTCLIKDFFPPDIDVEWQSNGQQEPESKYRTTPPQLDEDGSYFLYSKLSVDKSRWQRGDTFICHVMHEALHNHYTQESLSHSPGK	0.0409
anti-NGF canine IgGB antibody, Fc variant A426H + T286L (antibody, part only; not given: Anti-NGF variable domains, not shown: another chain or arm of the molecule; small tags and cut ends) Fc: APEMLGGPSVFIFPPKPKDTLLIARTPEVTCVVVDLDPEDPEVQISWFVDGKQMQLAKTQPREEQFNGTYRVVSVLPIGHQDWLKGKQFTCKVNNKALPSPIERTISKARGQAHQPSVYVLPPSREELSKNTVSLTCLIKDFFPPDIDVEWQSNGQQEPESKYRTTPPQLDEDGSYFLYSKLSVDKSRWQRGDTFICHVMHEALHNHYTQESLSHSPGK	0.069
anti-NGF canine IgGB antibody, Fc variant A426Y + Y436H (antibody, part only; not given: anti-NGF variable domains and light chain, not shown: another chain or arm of the molecule; small tags and cut ends) Fc: APEMLGGPSVFIFPPKPKDTLLIARTPEVTCVVVDLDPEDPEVQISWFVDGKQMQTAKTQPREEQFNGTYRVVSVLPIGHQDWLKGKQFTCKVNNKALPSPIERTISKARGQAHQPSVYVLPPSREELSKNTVSLTCLIKDFFPPDIDVEWQSNGQQEPESKYRTTPPQLDEDGSYFLYSKLSVDKSRWQRGDTFICYVMHEALHNHHTQESLSHSPGK	0.0777

// switching to the query binder
**Query** Quick one: koff of anti-NGF canine IgGB antibody, Fc variant N434R + T286L (antibody, part only; not given: Anti-NGF variable domains, not shown: another chain or arm of the molecule) Fc: APEMLGGPSVFIFPPKPKDTLLIARTPEVTCVVVDLDPEDPEVQISWFVDGKQMQLAKTQPREEQFNGTYRVVSVLPIGHQDWLKGKQFTCKVNNKALPSPIERTISKARGQAHQPSVYVLPPSREELSKNTVSLTCLIKDFFPPDIDVEWQSNGQQEPESKYRTTPPQLDEDGSYFLYSKLSVDKSRWQRGDTFICAVMHEALHRHYTQESLSHSPGK ?
**Result** 0.031
